Target: T1, CXC chemokine receptor type 4 (CXCR4) (human, UniProt P61073 1-352)
T1 chain: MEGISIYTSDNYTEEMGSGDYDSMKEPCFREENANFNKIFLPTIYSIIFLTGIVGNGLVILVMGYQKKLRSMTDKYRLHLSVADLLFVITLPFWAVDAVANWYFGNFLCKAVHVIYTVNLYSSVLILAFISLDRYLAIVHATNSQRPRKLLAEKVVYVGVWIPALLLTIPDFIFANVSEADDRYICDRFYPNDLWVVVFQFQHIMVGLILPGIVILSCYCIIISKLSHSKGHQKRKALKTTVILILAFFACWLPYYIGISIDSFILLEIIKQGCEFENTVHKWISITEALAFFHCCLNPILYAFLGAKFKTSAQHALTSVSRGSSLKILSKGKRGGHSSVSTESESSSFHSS
Assay: competition
Where no end group is shown, it is not given here. Side-chain parts run from the residue outwards. The star is where a group is joined. Palmitoyl = CCCCCCCCCCCCCCCC(=O)*; Glu = glutamate linker
Would you kindly list IC50 for each of these binders?
Answers are plain numbers, in nM.

ILRWSRK(Palmitoyl)LPCVS [JM#144]    87

Quick batch: IC50 for everything below.
1. IVRWSKKVPCVS [WSC02]
2. ILRWSRK-NH2 [JM#118]
3. ILRWSRK(Ac)LPCVS [JM#200]
4. ILRWSRKLPCVS [JM#21]
5. ILRWSRK([Glu-Palmitoyl])LPCVS [JM#143]
6. ILRWSRK([Glu-Palmitoyl])-NH2 [JM#192]

1: 274; 2: 224; 3: 213; 4: 147; 5: 176; 6: 4

Every entry's value here was drawn from patent US20230131339A1.
